These entries and their values trace back to paper PMC5540273.

# System: CSNK1A1;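 further: KINOMEscan kinase panel screen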
# condition_label: concentration: 1 μM, replicates: in singlicate; n = 1
assay_metric: %Inh (%)
Give a bare numeral; the unit % is implied.

Input line: Indicate the recorded %Inh value for this compound: COc1cc2nccc(Nc3ccc(OCc4ccc(NC(C)=O)cc4)cc3)c2cc1OC.Cl [GW440135]
Output line: 0

Input line: Indicate the recorded %Inh value for this compound: CCS(=O)c1ccc(-c2coc3ccc(-c4nnc(C)o4)cc23)cc1 (stereo not drawn)
Output line: 1

Input line: Indicate the recorded %Inh value for this compound: CN1C(=O)C(Nc2cc(Cl)c(O)c(Cl)c2)=C(c2ccc(Cl)cc2)C1=O [SB-404321]
Output line: 0

Input line: Indicate the recorded %Inh value for this compound: O=C1NC(=O)C(c2ccccc2)=C1Nc1cccc(O)c1 [SB-390534]
Output line: 19

Input line: Indicate the recorded %Inh value for this compound: CN1C(=O)C(Nc2ccccc2)=C(c2ccccc2)C1=O [SB-300079]
Output line: 0

Input line: Indicate the recorded %Inh value for this compound: Cc1nc(N(C)[C@H]2CN(C(=O)CC#N)CC[C@H]2C)c2cc[nH]c2n1
Output line: 0

Input line: Indicate the recorded %Inh value for this compound: COc1cccc(C2=C(N(C)c3ccccc3)C(=O)NC2=O)c1 [SB-334865]
Output line: 0

Input line: Indicate the recorded %Inh value for this compound: C[C@@H]1CC[C@H](C(=O)NC2CCCCC2)CN1c1cc(-c2ccc3c(N)n[nH]c3c2)nc(N)n1 [GSK2291363]
Output line: 0

Input line: Indicate the recorded %Inh value for this compound: COc1cc2ncn(-c3cc(OCc4ccc(S(C)(=O)=O)cc4)c(C(N)=O)s3)c2cc1OC [GW869979]
Output line: 0

Input line: Indicate the recorded %Inh value for this compound: COc1ccc(-c2cc3c(C)nc(N)nc3n([C@H]3CC[C@H](O)CC3)c2=O)cn1
Output line: 13

Input line: Indicate the recorded %Inh value for this compound: O=C(Nc1ccc2c(c1)OCO2)NC1CCN(c2ccnc(NCc3ccc(F)cc3)n2)CC1 [GSK1379859]
Output line: 0

Input line: Indicate the recorded %Inh value for this compound: Cc1cccc(-c2nc(Nc3ccc4c(cnn4C)c3)c3ccccc3n2)n1 [GW876731]
Output line: 0

Input line: Indicate the recorded %Inh value for this compound: Cc1c(Cn2c(C)nn3c(=O)cc(N4CCO[C@H](C)C4)nc23)cccc1C(F)(F)F [GSK2373690]
Output line: 23

Input line: Indicate the recorded %Inh value for this compound: CN(C)c1cc(-c2ccc3c(N)n[nH]c3c2)nc(N)n1 [GSK2219329]
Output line: 0

Input line: Indicate the recorded %Inh value for this compound: COc1cc2ncn(-c3cc(OCc4ccncc4)c(C(N)=O)s3)c2cc1OC [GSK336313]
Output line: 0

Input line: Indicate the recorded %Inh value for this compound: Cc1nnc(-c2ccc(C)c(-c3ccc(C(=O)O)cc3)c2)o1 [GW608005]
Output line: 0

Input line: Indicate the recorded %Inh value for this compound: O=C(NCCNc1ccnc(Nc2ccc(F)cc2)n1)Nc1ccc2c(c1)OCO2 [GSK1379882]
Output line: 0

Input line: Indicate the recorded %Inh value for this compound: COc1ccc(CNC(=O)NC2CCN(c3ccnc(Nc4ccc(F)cc4)n3)C2)cc1 (stereo not drawn) [GSK1379706]
Output line: 25
